# Test system: OVCAR-3 ovarian
# PROTOCOL DESCRIPTION: NCI tumour cell line growth inhibition, 48 h; in the data active = GI50 below about 0.43 µM; inactive = the rest
Reply using exactly one outcome from active, inactive

C=C1C(=O)O[C@H]2[C@H](OC(C)=O)[C@@H](C)CCCC3(C)OC3CCC3(CO3)[C@H](O)C[C@@H]12 (stereo not given in full) = inactive
CC(C)(c1ccccc1)c1cc(O)c(C(C)(C)c2ccccc2)cc1O = inactive
O=C(O)c1cc(=O)cc(C(=O)O)o1 = inactive

For `O=c1c2ccccc2c(/C=N\NC2=NCCN2)c2oc3ccccc3n12` , which call appears in the assay record? inactive

In this assay, the call recorded for `CC[C@@]1(O)C(=O)OCc2c1cc1n(c2=O)Cc2cc3ccccc3nc2-1` was what? active

GET /call?item= `COc1ccc(/C=C2\COc3ccc(O)c(O)c3C2=O)c(OC)c1OC` returns the recorded outcome of this test. inactive

Recorded test call requested for `Cn1cc(C2=C(c3cn(-c4ccccc4)c4ccccc34)C(=O)NC2=O)c2ccccc21` inactive

For this molecule, state the assay outcome: `N#Cc1c(NC(=O)c2ccc(F)cc2)sc2c1CCCC2` inactive

Recorded values, source PubChem BioAssay (NCI).
